Molecular target: Orexin/Hypocretin receptor type 1 (Homo sapiens, UniProt O43613)
Sequence (O43613 whole entry): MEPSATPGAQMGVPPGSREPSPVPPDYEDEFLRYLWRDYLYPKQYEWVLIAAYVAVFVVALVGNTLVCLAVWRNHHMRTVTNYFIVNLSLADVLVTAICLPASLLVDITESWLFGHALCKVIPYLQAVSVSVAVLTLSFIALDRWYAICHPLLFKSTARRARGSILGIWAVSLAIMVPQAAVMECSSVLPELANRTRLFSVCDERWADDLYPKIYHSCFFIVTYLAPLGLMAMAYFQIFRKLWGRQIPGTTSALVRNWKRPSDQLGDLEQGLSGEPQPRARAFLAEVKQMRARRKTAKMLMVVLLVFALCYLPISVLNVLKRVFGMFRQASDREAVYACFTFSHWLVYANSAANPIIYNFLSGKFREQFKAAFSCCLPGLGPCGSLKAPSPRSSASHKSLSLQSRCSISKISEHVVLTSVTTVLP
Assay: Agonist activity at OX1R (unknown origin)
// reported pEC50 for each item listed
Keep it numeric: pEC50 is minus log10 of the concentration in mol/L.

Some molecules with known pEC50 results, for comparison:
| Molecule | Test target | pEC50 |
| --- | --- | --- |
| COc1cccc(CC(=O)NC2CCCc3ccc(NS(=O)(=O)c4cc(-c5cccc(C(=O)N(C)C)c5)ccc4OC)cc32)c1 (centres undefined) | Orexin/Hypocretin receptor type 1 (Homo sapiens, UniProt O43613) | 6.64 |
| COc1ccc(-c2cccc(C(=O)N(C)C)c2)cc1S(=O)(=O)Nc1ccc2c(c1)C(N(C)C(=O)Cc1cccc(N(C)C)c1)CCC2 (centres undefined) | Orexin/Hypocretin receptor type 1 (Homo sapiens, UniProt O43613) | 7.05 |
| COc1ccccc1CC(=O)N(C)C1CCCc2ccc(NS(=O)(=O)c3cc(-c4cccc(C(=O)N(C)C)c4)ccc3OC)cc21 (centres undefined) | Orexin/Hypocretin receptor type 1 (Homo sapiens, UniProt O43613) | 7.04 |

Now look at this entry.
Measured pEC50 of CCOc1cccc(CC(=O)N(C)C2CCCc3ccc(NS(=O)(=O)c4cc(-c5cccc(C(=O)N(C)C)c5)ccc4OC)cc32)c1 (centres undefined) : 7.26
